Reference source: the kinase profiling compilation of Christmann-Franck et al. (2016)

target: CLK4 (human) (UniProt Q9HAZ1); experiment: KINOMEscan competition binding; conditions: compound 10.0 µM
Sequence (Q9HAZ1 whole entry, looked up): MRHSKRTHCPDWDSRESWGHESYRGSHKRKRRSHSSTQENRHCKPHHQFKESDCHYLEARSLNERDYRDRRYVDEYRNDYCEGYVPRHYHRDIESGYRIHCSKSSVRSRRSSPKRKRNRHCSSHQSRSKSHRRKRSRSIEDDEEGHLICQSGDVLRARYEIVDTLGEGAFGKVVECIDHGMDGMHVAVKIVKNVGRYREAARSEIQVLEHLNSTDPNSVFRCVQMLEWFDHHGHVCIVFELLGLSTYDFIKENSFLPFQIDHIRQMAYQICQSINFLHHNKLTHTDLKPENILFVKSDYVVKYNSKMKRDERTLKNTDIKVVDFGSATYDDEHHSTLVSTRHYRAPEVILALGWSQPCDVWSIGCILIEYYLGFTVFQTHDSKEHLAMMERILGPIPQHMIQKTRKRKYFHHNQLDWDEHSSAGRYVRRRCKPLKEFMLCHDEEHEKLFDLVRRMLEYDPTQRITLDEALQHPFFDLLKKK
The class of a record is decided solely by its measured kinase still bound, per cent of control; consult band 1 (below 6%), band 2 (6% to below 30%), band 3 (30% or more)

Below are worked cases with known answers.
COc1cc(N2CCN(C)CC2)ccc1Nc1ncc2c(n1)N(C)c1ccccc1N(C)C2=O: band 3
COc1cc(C(N)=O)ccc1-c1ccc(/C=C2\SC(=N)NC2=O)o1: band 2
N=C1NC(=O)/C(=C/c2ccc(-c3ccc(C(N)=O)cc3O)o2)S1: band 2
N=C1NC(=O)/C(=C/c2c[nH]c(=O)c(-c3ccc(S(N)(=O)=O)cc3)c2)S1: band 2
N=C1NC(=O)/C(=C/c2ccc(-c3ccc(C(=O)Nc4ccc(N5CCNCC5)cc4)cc3O)o2)S1: band 1
N=C1NC(=O)/C(=C/c2ccc(-c3ccc(F)cc3O)o2)S1: band 1
COc1cc(N2CCN(C)CC2)ccc1Nc1ncc2c(n1)N(C)c1sccc1C(=O)N2C: band 3
COc1cc(N2CCC(O)CC2)ccc1Nc1ncc2c(n1)N1CCc3cccc(c31)C(=O)N2C: band 3

Just checking, what class would you give N=C1NC(=O)/C(=C/c2c[nH]c(=O)c(-c3ccc(N4CCNCC4)nc3)c2)S1 here? band 2

Just checking, what class would you give O=C1NC(=O)/C(=C/c2c[nH]c(=O)c(-c3ccc(N4CCNCC4)nc3)c2)S1 here? band 2

Just checking, what class would you give CN1C(=O)c2ccccc2N(C)c2nc(NS(=O)(=O)c3ccc(N)cc3)ncc21 here? band 3

Just checking, what class would you give N=C1NC(=O)/C(=C/c2ccc(-c3cncc4ccccc34)o2)S1 here? band 1

Just checking, what class would you give CN1CCN(c2ccc(C(=O)Nc3ncc4c(n3)N(C)c3ccccc3C(=O)N4C)cc2)CC1 here? band 3

Just checking, what class would you give CN1C(=O)[C@H]2CCC[C@H]2N(C2CCCC2)c2nc(Nc3ccc(C(N)=O)cc3)ncc21 here? band 1

Just checking, what class would you give N=C1NC(=O)/C(=C/c2ccc(-c3cccc4cc[nH]c34)o2)S1 here? band 2

Just checking, what class would you give CN1C(=O)c2ccccc2N(C)c2nc(Nc3ccc(N4CCC(O)CC4)cc3)ncc21 here? band 3

Just checking, what class would you give N=C1NC(=O)/C(=C/c2ccc(-c3csc4ccccc34)o2)S1 here? band 2
